- target: T1, CD5 antigen (Octet affinity determination, Example 8) (UniProt P06127 25-372, limits assumed)
- T1 sequence (looked up): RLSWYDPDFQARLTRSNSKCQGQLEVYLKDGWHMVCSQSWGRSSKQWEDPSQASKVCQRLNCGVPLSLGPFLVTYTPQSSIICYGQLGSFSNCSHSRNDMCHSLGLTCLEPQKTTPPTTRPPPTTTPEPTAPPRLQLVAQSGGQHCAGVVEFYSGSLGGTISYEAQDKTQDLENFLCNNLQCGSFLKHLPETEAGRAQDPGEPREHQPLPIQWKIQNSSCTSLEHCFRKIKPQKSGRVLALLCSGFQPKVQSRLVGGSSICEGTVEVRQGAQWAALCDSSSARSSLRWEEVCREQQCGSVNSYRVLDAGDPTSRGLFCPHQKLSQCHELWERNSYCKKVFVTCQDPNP
- experiment: BLI (Octet), IgG loaded on the biosensor, CD5 antigen 400 to 12.5 nM, 1:1 model
pKd: −log10 of the molar value.
measured parameter: pKd

binder="Clone 10 anti-CD5 IgG (antibody, V domains shown) VH: EVQLLESGGGLVKPGGSLRLSCAASGFTFNNYTMNWVRQAPGKGLEWVSSISSSSSYIYYADSVKGRFTISRDNAKNSLFLQMNSLRGEDTAVYYCARYFSGSAGDYWGQGTLVTVSS VL: QSVVTQPPSVSGAPGQRVTISCTGSSSNIGAGYDVHWYQQLPGTAPKLLIYGNINRPSGVPDRFSGSKSGTSASLAITGLQAEDEADYYCGTWDNSLSAHYVFGTGTKVTVLG" recorded_number=8.35
